Target: Cellular tumor antigen p53 (Homo sapiens)
Experiment: TOX21_p53_BLA_p2_ratio: Tox21 HCT-116 p53 Agonism Beta-lactamase Assay, Ratio, Phase 2 (AID 2283592)
Protocol: TOX21_p53_BLA_p2 is a cell-based, single-readout assay that uses HCT116, a human intestinal cell line, […] in a 1536-well plate.TOX21_p53_BLA_p2_ratio is an assay readout measuring reporter gene via receptor activity and designed using inducible reporter (beta lactamase induction) detected with GAL4 b-lactamase reporter gene. […] This assay endpoint, TOX21_p53_BLA_p2_ratio, was analyzed in the positive analysis fitting direction relative to DMSO as the negative control and baseline of activity. […]
Records with an inconclusive call do not appear. Calls of active or inactive are those of the source. The calls were made as follows: active = hit-call score of the fitted dose curve at least 0.9, where 1 is the maximum; inconclusive = response in the unintended direction; inactive = score below 0.9.
Result category, one only: TRUE = active, FALSE = inactive

Req: Tell me the recorded outcome of this test for COc1ccccc1N1CCNCC1 .
Resp: FALSE

Req: Tell me the recorded outcome of this test for O=C(Cl)c1ccccc1F .
Resp: FALSE

Req: Tell me the recorded outcome of this test for O=C(O)c1ccccn1 .
Resp: FALSE

Req: Tell me the recorded outcome of this test for CC(=O)Oc1ccc2c3c1O[C@H]1[C@@H](OC(C)=O)C=C[C@H]4[C@@H](C2)N(C)CC[C@@]341 .
Resp: FALSE

Req: Tell me the recorded outcome of this test for CN1C(=O)CC(=O)N(c2ccccc2)c2cc(Cl)ccc21 .
Resp: FALSE

Req: Tell me the recorded outcome of this test for N#CCCCCC#N .
Resp: FALSE

Req: Tell me the recorded outcome of this test for COc1cc(CC(C)N)c(OC)cc1Br (stereo not given) .
Resp: FALSE

Req: Tell me the recorded outcome of this test for C=CC(=O)OC .
Resp: FALSE

Req: Tell me the recorded outcome of this test for Oc1ccc(Cl)c(Cl)c1 .
Resp: FALSE

Req: Tell me the recorded outcome of this test for CCC(Br)(CC)C(=O)NC(N)=O .
Resp: FALSE

Req: Tell me the recorded outcome of this test for [S]=[Sb](=[S])[S][Sb](=[S])=[S] .
Resp: FALSE

Req: Tell me the recorded outcome of this test for CC(C)OC(=O)C(O)(c1ccc(Cl)cc1)c1ccc(Cl)cc1 .
Resp: FALSE

Req: Tell me the recorded outcome of this test for CC(C)[C@@]1(NC(=O)[C@@H]2C[C@@H]3c4cccc5[nH]cc(c45)C[C@H]3N(C)C2)O[C@@]2(O)[C@@H]3CCCN3C(=O)[C@H](Cc3ccccc3)N2C1=O .
Resp: FALSE

Req: Tell me the recorded outcome of this test for Nc1c(Br)cc([N+](=O)[O-])cc1[N+](=O)[O-] .
Resp: FALSE

Req: Tell me the recorded outcome of this test for O=C(O)CC[N+](=O)[O-] .
Resp: FALSE

Req: Tell me the recorded outcome of this test for ClCOCCl .
Resp: FALSE

Req: Tell me the recorded outcome of this test for Clc1ccccc1-c1ccccc1Cl .
Resp: FALSE

Req: Tell me the recorded outcome of this test for O=C(O)C(Br)Br .
Resp: FALSE

Req: Tell me the recorded outcome of this test for CCCCCc1cc(O)c2c(c1)OC(C)(C)c1ccc(C)cc1-2 .
Resp: TRUE

Req: Tell me the recorded outcome of this test for Cc1ccccc1-n1c(C)nc2ccccc2c1=O .
Resp: FALSE

Req: Tell me the recorded outcome of this test for C=CC(=O)OCC(CC)CCCC (stereo not given) .
Resp: FALSE

Req: Tell me the recorded outcome of this test for Brc1c(Br)c(Br)c(Br)c(Br)c1Br .
Resp: FALSE

Req: Tell me the recorded outcome of this test for O=C(NC(=O)c1ccccc1Cl)Nc1ccc(OC(F)(F)F)cc1 .
Resp: FALSE

Req: Tell me the recorded outcome of this test for [2H]C([2H])([2H])[C@H](N)Cc1ccccc1 .
Resp: FALSE

Req: Tell me the recorded outcome of this test for CN1CCC(O)(c2ccc(F)cc2)C(C(=O)c2ccc(F)cc2)C1 (stereo not given) .
Resp: FALSE
